Entries and their Dmax
Biological target: IRAK4 (Homo sapiens, UniProt Q9NWZ3)
Construct: endogenous in cells; host or cells: Karpas299
Sequence (Q9NWZ3 1-460): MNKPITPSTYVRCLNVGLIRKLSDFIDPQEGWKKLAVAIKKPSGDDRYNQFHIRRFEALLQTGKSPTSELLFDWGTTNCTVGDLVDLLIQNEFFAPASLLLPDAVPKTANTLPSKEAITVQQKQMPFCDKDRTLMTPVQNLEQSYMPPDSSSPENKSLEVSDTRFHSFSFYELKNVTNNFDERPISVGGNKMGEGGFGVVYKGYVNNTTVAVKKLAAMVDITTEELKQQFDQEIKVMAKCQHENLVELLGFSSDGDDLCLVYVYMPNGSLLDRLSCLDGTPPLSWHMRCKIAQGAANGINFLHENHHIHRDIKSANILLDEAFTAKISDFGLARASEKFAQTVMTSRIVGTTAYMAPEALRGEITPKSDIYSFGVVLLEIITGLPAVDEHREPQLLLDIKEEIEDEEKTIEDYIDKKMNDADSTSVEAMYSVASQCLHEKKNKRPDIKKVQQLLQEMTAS
Experiment: IRAK4 Degradation Assay (Karpas299, HTRF/TR-FRET)
Type: cell-based
Details: Karpas-299 cells, 24 h treatment; maximum percentage of degradation; read-out: IRAK4 in Karpas-299 (24 h) Dmax (%)
I only need the number, in %, no unit after it.

Use these answered entries as a reference point.
CC(C)(O)c1cc2nn([C@H]3CC[C@H](N4CCN(CCNc5cc(F)c(C6CCC(=O)NC6=O)c(F)c5)CC4)CC3)cc2cc1NC(=O)c1ccc2cc(C#N)cnn12 (stereo partly drawn): 98
CC(C)(O)c1cc2nn([C@H]3CC[C@H](N4CCN([C@H]5C[C@H](c6ccc(N[C@H]7CCC(=O)NC7=O)cc6)C5)CC4)CC3)cc2cc1NC(=O)c1ccc2cc(C#N)cnn12: 97

Looking for the measured Dmax of "CC(C)(O)c1cc2nn([C@H]3CC[C@H](N4CCN([C@H]5C[C@@H](c6ccc(N[C@H]7CCC(=O)NC7=O)cc6)C5)CC4)CC3)cc2cc1NC(=O)c1ccc2cc(C#N)cnn12" , can you help?
95
